Data origin: ChEMBL document CHEMBL4033799

assay: Half life in Sprague-Dawley rat at 5 mg/kg, iv by LC-MS/MS analysis; format: ADME, organism-based; conditions: in vivo
OBSERVABLE: half-life (min)
Kindly provide the numeric value in min only, without the unit symbol.

Sample "CC(=O)N[C@H]1CSCc2cc3cc(c2)CSC[C@H](NC(=O)[C@H](CCCCNC(=N)N)NC(=O)[C@H](Cc2ccc(O)cc2)NC(=O)[C@@H]2CCN2C(=O)[C@H](Cc2ccccc2)NC(=O)[C@H](CO)NC1=O)C(=O)N[C@@H](C)CN[C@@H](Cc1cnc[nH]1)C(=O)N[C@@H](CCC(N)=O)C(=O)N[C@@H](CC(=O)O)C(=O)N[C@@H](CC(C)C)C(=O)N[C@H](C(=O)O)CSC3" ; half-life observed: 48

====

molecular target: Plasma kallikrein (Homo sapiens, UniProt P03952); test: Inhibition of human plasma kallikrein using fluorogenic H-Pro-Phe-Arg-AMC peptide as substrate preincubated for 15 mins followed by substrate addition measured by fluorescence-based assay; conditions: read-out: Ki(app)
Sequence (P03952 20-390 limits assumed): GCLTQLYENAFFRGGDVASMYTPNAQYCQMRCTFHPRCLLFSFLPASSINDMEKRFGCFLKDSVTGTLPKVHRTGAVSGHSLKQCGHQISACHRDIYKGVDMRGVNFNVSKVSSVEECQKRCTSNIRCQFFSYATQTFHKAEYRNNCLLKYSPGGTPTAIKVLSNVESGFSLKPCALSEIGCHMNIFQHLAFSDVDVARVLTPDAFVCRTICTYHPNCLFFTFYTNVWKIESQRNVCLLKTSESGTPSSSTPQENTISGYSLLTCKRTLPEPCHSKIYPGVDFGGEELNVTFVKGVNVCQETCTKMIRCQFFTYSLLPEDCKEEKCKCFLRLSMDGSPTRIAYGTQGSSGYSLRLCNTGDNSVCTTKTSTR
Sequence (P03952 391-638 limits assumed): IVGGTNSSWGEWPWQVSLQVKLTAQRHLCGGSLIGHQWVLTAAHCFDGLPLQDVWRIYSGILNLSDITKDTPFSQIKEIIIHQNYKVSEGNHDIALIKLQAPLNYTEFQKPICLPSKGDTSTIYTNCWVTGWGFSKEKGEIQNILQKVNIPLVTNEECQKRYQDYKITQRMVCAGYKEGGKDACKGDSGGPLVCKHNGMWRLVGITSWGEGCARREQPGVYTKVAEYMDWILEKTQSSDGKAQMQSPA
*1 amine or outer side, *2 acyl side, *3 side chain or, on linkers, in order; H or OH if unused. Where a SMILES comes first, the peptide text is derived from it. Bridges are numbered along the chain shown (N, C = ends). [ ]: non-standard residue; d: D form. ξ: configuration not given here. TBMB = c1c(C[*:1])cc(C[*:3])cc1C[*:2]; hArg = N=C(N)NCCCC[C@H](N)C(=O)O; ξAze = O=C(O)C1CCN1
The molecules listed here are annotated with their Ki.
Reply with just the number (in nM).

Solved cases below.
MOLECULE: CC(=O)N[C@H]1CSCc2cc3cc(c2)CSC[C@H](NC(=O)[C@H](CCCNC(=N)N)NC(=O)[C@H](Cc2ccc(O)cc2)NC(=O)[C@@H]2CCCN2C(=O)[C@H](Cc2ccccc2)NC(=O)[C@H](CO)NC1=O)C(=O)N[C@@H](CC(C)C)C(=O)N[C@@H](Cc1cnc[nH]1)C(=O)N[C@@H](CCC(N)=O)C(=O)N[C@@H](CC(=O)O)C(=O)N[C@@H](CC(C)C)C(=O)N[C@H](C(=O)O)CSC3 (Ac-CSFPYRCLHQDLC-OH; linker 1-7-13 via TBMB)
Ki, nM: 0.39

MOLECULE: CC(=O)N[C@H]1CSCc2cc3cc(c2)CSC[C@H](NC(=O)[C@H](CCCNC(=N)N)NC(=O)[C@H](C)NC(=O)C2CCN2C(=O)[C@H](Cc2c[nH]c4ccccc24)NC(=O)[C@H](CO)NC1=O)C(=O)N[C@@H](CC(C)C)C(=O)N[C@@H](Cc1cnc[nH]1)C(=O)N[C@@H](CCC(N)=O)C(=O)N[C@@H](CC(=O)O)C(=O)N[C@@H](CC(C)C)C(=O)N[C@H](C(=O)O)CSC3 (some centres undefined) (Ac-CSW[ξAze]ARCLHQDLC-OH; linker 1-7-13 via TBMB)
Ki, nM: 0.06

MOLECULE: CC(=O)N[C@H]1CSCc2cc3cc(c2)CSC[C@H](NC(=O)[C@H](CCCCNC(=N)N)NC(=O)[C@H](Cc2ccc(O)cc2)NC(=O)C2CCN2C(=O)[C@H](Cc2ccccc2)NC(=O)[C@H](CO)NC1=O)C(=O)N[C@@H](CC(C)C)C(=O)N[C@@H](Cc1cnc[nH]1)C(=O)N[C@@H](CCC(N)=O)C(=O)N[C@@H](CC(=O)O)C(=O)N[C@@H](CC(C)C)C(=O)N[C@H](C(=O)O)CSC3 (some centres undefined) (Ac-CSF[ξAze]Y[hArg]CLHQDLC-OH; linker 1-7-13 via TBMB)
Ki, nM: 0.21

# input for lookup
Short answer for CC(=O)N[C@H]1CSCc2cc3cc(c2)CSC[C@H](NC(=O)[C@H](CCCNC(=N)N)NC(=O)[C@H](C)NC(=O)[C@@H]2CCCN2C(=O)[C@H](Cc2c[nH]c4ccccc24)NC(=O)[C@H](CO)NC1=O)C(=O)N[C@@H](CC(C)C)C(=O)N[C@@H](Cc1cnc[nH]1)C(=O)N[C@@H](CCC(N)=O)C(=O)N[C@@H](CC(=O)O)C(=O)N[C@@H](CC(C)C)C(=O)N[C@H](C(=O)O)CSC3 (Ac-CSWPARCLHQDLC-OH; linker 1-7-13 via TBMB) : Ki was 0.15
